Data credit: patent US10562891B2

- SYSTEM_UNDER_TEST: catalytic domain of human PARP14 (Homo sapiens (Human), UniProt Q460N5)
- Sequence (Q460N5 1611-1801): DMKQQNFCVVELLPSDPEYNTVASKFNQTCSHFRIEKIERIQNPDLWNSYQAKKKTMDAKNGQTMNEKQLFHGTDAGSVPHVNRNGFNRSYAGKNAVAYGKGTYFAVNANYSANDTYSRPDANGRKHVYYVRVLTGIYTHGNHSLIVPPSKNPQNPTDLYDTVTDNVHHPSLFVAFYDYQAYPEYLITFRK
- PROTOCOL: Enzymatic assay for inhibition of PARP14 (DELFIA, auto-modification with biotin-NAD)
- STATED_CONDITIONS: auto-modification of PARP14 by biotin-NAD, 50 nM PARP14, 3 μM biotin-NAD
Where a name gives a salt, the structure may show the parent alone.
MEASURED_ENDPOINT: IC50

Example entries and their recorded answers appear below.
Cc1cccc2c(=O)[nH]c(CSC3CCN(Cc4cnc5ccccn45)CC3)nc12 [Example 152, trifluoroacetate]: < 1000 nM
O=c1[nH]c(CSC2CCOCC2)nc2cc(NC[C@H]3CCOC3)c(F)c(F)c12 [Example 323b]: < 1000 nM
O=c1[nH]c(CS[C@H]2CC[C@H](CO)CC2)nc2cc(NC3CCCCC3)ccc12: < 1000 nM

We now examine a further compound.
Report IC50 for Cc1cccc2c(=O)[nH]c(CSC3CCCC(N)CC3)nc12 (stereo not shown) [Example 53, Trifluoroacetate] please.
< 1000 nM

* * *

- SYSTEM_UNDER_TEST: catalytic domain of human PARP14 (Homo sapiens (Human), UniProt Q460N5)
- PROTOCOL: Enzymatic assay for inhibition of PARP14 (DELFIA, auto-modification with biotin-NAD)
- STATED_CONDITIONS: auto-modification of PARP14 by biotin-NAD, 50 nM PARP14, 3 μM biotin-NAD
pIC50: −log10 of the molar value. Structures can show the parent of a compound that is named as a salt.
For each of the compounds below, state its pIC50.

Dear colleague, could you please provide pIC50 for the compounds listed below?
1. Cc1cccc2c(=O)[nH]c(CSCC3CCOCC3)nc12 [Example 12]
2. O=c1[nH]c(CSC2CCOCC2)nc2cc(NC3CCOCC3)ccc12 [Example 114]
3. O=c1[nH]c(CSC2CCOCC2)nc2cc(OCC3CCCN(CC(F)F)C3)cc(F)c12 (stereo not shown) [Example 312]
4. Cc1ccnc2c(=O)[nH]c(CSC3CCOCC3)nc12 [Example 41]
5. O=c1[nH]c(CSC2CCOCC2)nc2cc(OCC3CC3)ccc12 [Example 219]

1: 5.00 to 6.00; 2: 5.00 to 6.00; 3: > 6.00; 4: < 5.00; 5: > 6.00

Dear colleague, could you please provide pIC50 for the compounds listed below?
1. O=c1[nH]c(CSC2CCOCC2)nc2cc(SCC3CCOCC3)cc(F)c12 [Example 370]
2. Cc1cccc2c(=O)[nH]c(CSC3CCN(C[C@@H](O)CO)CC3)nc12 [Example 160, Trifluoroacetate]
3. O=c1[nH]c(CSC2CCOCC2)nc2cc(NCC3CC3)c(F)c(F)c12 [Example 337]
4. O=C(CO)N1CCC(SCc2nc3cc(NC4CCCC4)cc(F)c3c(=O)[nH]2)CC1 [Example 214]
5. CC(C)Cc1ccc2c(=O)[nH]c(CSC3CCOCC3)nc2c1 [Example 202]
6. Cc1cccc2c(=O)[nH]c(CS[C@H]3CC[C@H](CO)CC3)nc12 [Example 62]

1: > 6.00; 2: 5.00 to 6.00; 3: > 6.00; 4: > 6.00; 5: 5.00 to 6.00; 6: > 6.00

* * *

For each of the compounds below, state its pIC50.
- SYSTEM_UNDER_TEST: catalytic domain of human PARP14 (Homo sapiens (Human), UniProt Q460N5)
- PROTOCOL: Enzymatic assay for inhibition of PARP14 (DELFIA, auto-modification with biotin-NAD)
- Assay type: biochemical
- STATED_CONDITIONS: auto-modification of PARP14 by biotin-NAD, 50 nM PARP14, 3 μM biotin-NAD
pIC50: −log10 of the molar value. Structures can show the parent of a compound that is named as a salt.

Cc1c(F)ccc2c(=O)[nH]c(CSC3CCOCC3)nc12: > 6.00

Dear colleague, could you please provide pIC50 for the compounds listed below?
1. CC(=O)N1CCC(CNc2cc3nc(CS[C@H]4CC[C@H](O)CC4)[nH]c(=O)c3c(F)c2F)CC1
2. O=c1[nH]c(CSC2CCN(CC(F)(F)F)CC2)nc2cc(NC3CCCC3)cc(F)c12
3. O=c1[nH]c(CS[C@H]2CC[C@H](O)CC2)nc2cc(OC[C@H]3CCOC3)cc(F)c12 [Example 325b]
4. O=c1[nH]c(CSC2CCOCC2)nc2cc(OC[C@H]3CCNC[C@@H]3F)cc(F)c12 (relative stereo)

["> 6.00", "> 6.00", "> 6.00", "5.00 to 6.00"]

Dear colleague, could you please provide pIC50 for the compounds listed below?
1. O=c1[nH]c(CSC2CCOCC2)nc2cc(NC3CCOC3)ccc12 (stereo not shown)
2. Cc1cccc2c(=O)[nH]c(CSC3CCN(C(=O)CCN)CC3)nc12 [Example 167, Hydrochloride]

["> 6.00", "5.00 to 6.00"]

* * *

For each of the molecules below, state its pIC50.
- SYSTEM_UNDER_TEST: catalytic domain of human PARP14 (Homo sapiens (Human))
- PROTOCOL: Enzymatic assay for inhibition of PARP14 (DELFIA, auto-modification with biotin-NAD)
- STATED_CONDITIONS: auto-modification of PARP14 by biotin-NAD, 50 nM PARP14, 3 μM biotin-NAD
pIC50: −log10 of the molar value.

CN1CCC(COc2cc(F)c3c(=O)[nH]c(CSC4CCOCC4)nc3c2)CC1: > 6.00

Dear colleague, could you please provide pIC50 for the molecules listed below?
1. O=c1[nH]c(CSC2CCNCC2)nc2cc(NCC3CCOCC3)cc(F)c12
2. CC1(SCc2nc3cc(OCC4CCOCC4)cc(F)c3c(=O)[nH]2)CCOCC1
3. O=c1[nH]c(CSC2CCOCC2)nc2cc(OC[C@@H]3CCCO3)cc(F)c12 [Example 321b]
4. O=c1[nH]c(CSC2CCNCC2)nc2cc(NCC3CCC3)cc(F)c12

1: 5.00 to 6.00; 2: > 6.00; 3: > 6.00; 4: > 6.00

* * *

For each of the compounds below, state its IC50.
- SYSTEM_UNDER_TEST: catalytic domain of human PARP14 (Homo sapiens (Human))
- PROTOCOL: Enzymatic assay for inhibition of PARP14 (DELFIA, auto-modification with biotin-NAD)
- STATED_CONDITIONS: auto-modification of PARP14 by biotin-NAD, 50 nM PARP14, 3 μM biotin-NAD
Where a name gives a salt, the structure may show the parent alone.

Example entries and their recorded answers appear below.
O=c1[nH]c(CS[C@H]2CC[C@@H](CO)CC2)nc2cc(Nc3ccccc3)ccc12: < 1000 nM
O=c1[nH]c(CS[C@H]2CC[C@H](C(=O)O)CC2)nc2cc(NC3CCCC3)cc(F)c12: < 1000 nM
NC(=O)C[C@H]1CC[C@H](SCc2nc3cc(NC4CCCC4)cc(F)c3c(=O)[nH]2)CC1: < 1000 nM
O=c1[nH]c(CS[C@H]2CCNC[C@@H]2F)nc2cc(NC3CCCC3)cc(F)c12 (relative stereo) [Example 210, Hydrochloride]: < 1000 nM
O=c1[nH]c(CSC2CCC(F)(F)CC2)nc2cc(OCC3CCOCC3)cc(F)c12: < 1000 nM
CNC[C@H]1CC[C@H](SCc2nc3c(C)cccc3c(=O)[nH]2)CC1: < 1000 nM

Dear colleague, could you please provide IC50 for the compounds listed below?
1. COc1ccc(Nc2ccc3c(=O)[nH]c(CSC4CCOCC4)nc3c2)cc1
2. O=c1[nH]c(CS[C@H]2CC[C@H](CO)CC2)nc2cc(NC3CCCC3)ccc12
3. NC[C@]1(F)CC[C@@H](SCc2nc3cc(NC4CCCC4)cc(F)c3c(=O)[nH]2)CC1
4. Cc1cccc2c(=O)[nH]c(CSC3CCN(C)CC3)nc12
5. Nc1cnn(-c2ccc3c(=O)[nH]c(CSC4CCOCC4)nc3c2)c1 [Example 93, Trifluoroacetate]
6. Cc1n[nH]cc1CN1CCC(SCc2nc3c(C)cccc3c(=O)[nH]2)CC1 [Example 149, trifluoroacetate]
7. CO[C@H]1C[C@@H](Nc2cc3nc(CSC4CCOCC4)[nH]c(=O)c3c(F)c2F)C1
8. O=c1[nH]c(CS[C@@H]2CCNC[C@H]2F)nc2cc(NC3CCCC3)cc(F)c12 [Example 211b]

1: 1000 to 10000 nM; 2: < 1000 nM; 3: < 1000 nM; 4: 1000 to 10000 nM; 5: > 10000 nM; 6: 1000 to 10000 nM; 7: < 1000 nM; 8: < 1000 nM

Dear colleague, could you please provide IC50 for the compounds listed below?
1. O=c1[nH]c(CSC2CCN(C3COC3)CC2)nc2cc(NC3CCCC3)cc(F)c12
2. COc1cccc2c(=O)[nH]c(CSC3CCOCC3)nc12
3. Cc1cccc2c(=O)[nH]c(CS[C@H]3CC[C@H](CCN)CC3)nc12
4. O=c1[nH]c(CSC2CCOCC2)nc2cc(OCC3CCOC3)cc(F)c12 (centres unmarked)

< 1000 nM
1000 to 10000 nM
< 1000 nM
< 1000 nM

Dear colleague, could you please provide IC50 for the compounds listed below?
1. Cc1ncccc1Nc1ccc2c(=O)[nH]c(CSC3CCOCC3)nc2c1
2. O=c1[nH]c(CS[C@H]2CC[C@H](O)CC2)nc2cc(NC3CCCC3)ccc12
3. CN1CCC(COc2cc(F)c3c(=O)[nH]c(CSC4CCOCC4)nc3c2)C(F)(F)C1 (centres unmarked)
4. O=c1[nH]c(CSC2CCOCC2)nc2cc(NC3CCCN(Cc4ccccc4)C3)ccc12 (centres unmarked)

1: 1000 to 10000 nM; 2: < 1000 nM; 3: < 1000 nM; 4: 1000 to 10000 nM

Dear colleague, could you please provide IC50 for the compounds listed below?
1. N#Cc1ccc2c(=O)[nH]c(CSC3CCOCC3)nc2c1
2. CS(=O)(=O)N1CC(Nc2ccc3c(=O)[nH]c(CSC4CCOCC4)nc3c2)C1
3. NC[C@]1(F)CC[C@H](SCc2nc3cc(NC4CCCC4)cc(F)c3c(=O)[nH]2)CC1
4. CS(=O)(=O)N1CCC[C@@H](Nc2ccc3c(=O)[nH]c(CS[C@H]4CC[C@H](O)CC4)nc3c2)C1
5. O=c1[nH]c(CS[C@H]2CNC[C@H]2F)nc2cc(NC3CCCC3)cc(F)c12 (relative stereo) [Example 223, Trifluoroacetate]
6. Cc1cccc2c(=O)[nH]c(CSC3CCN(C(=O)[C@H](N)CCCNC(=N)N)CC3)nc12 [Example 169, Trihydrochloride]
7. O=c1[nH]c(CSC2CCOCC2)nc2cc(NCC3CCOC3)c(F)c(F)c12 (centres unmarked)
8. Cc1cccc2c(=O)[nH]c(CSC3CCCN(C)C3)nc12 (centres unmarked)

["> 10000 nM", "< 1000 nM", "< 1000 nM", "< 1000 nM", "< 1000 nM", "< 1000 nM", "< 1000 nM", "1000 to 10000 nM"]

Dear colleague, could you please provide IC50 for the compounds listed below?
1. Cc1cccc2c(=O)[nH]c(CSC3CCN(Cc4c[nH]c5ccncc45)CC3)nc12 [Example 151, bistrifluoroacetate]
2. O=c1[nH]c(CS[C@H]2CC[C@H](O)CC2)nc2cc(N[C@H]3CCC[C@@H]3F)cc(F)c12 (relative stereo)

["< 1000 nM", "< 1000 nM"]
